# assay.overview: Study DG-031-204: steady state DG-031 plasma concentrations
# Format: in vivo, human
# measurement.parameters: human, plasma, oral, 500 mg, 500 mg BID, 6 hr post dose; read-out: Steady state DG-031 exposure, Geometric Mean

item.smiles | concentration at 6 h (ng/mL)
O=C(O)[C@@H](c1ccc(OCc2ccc3ccccc3n2)cc1)C1CCCC1 | 7000

* * *

# assay.overview: Study DG-031-204: steady state DG-031 plasma concentrations
# Type: in vivo, human
# measurement.parameters: human, plasma, oral, 500 mg, 500 mg TID, 6 hr post dose; read-out: Steady state DG-031 exposure, Geometric Mean
observed.property: concentration at 6 h

item.smiles | observed.value
O=C(O)[C@@H](c1ccc(OCc2ccc3ccccc3n2)cc1)C1CCCC1 | 7400 ng/mL

* * *

# assay.overview: Study DG-031-204: steady state DG-031 plasma concentrations
# Format: in vivo, human
# measurement.parameters: human, plasma, oral, 500 mg, 500 mg BID, 2 hr post dose; read-out: Steady state DG-031 exposure, Geometric Mean

item.smiles | concentration at 2 h, ng/mL
O=C(O)[C@@H](c1ccc(OCc2ccc3ccccc3n2)cc1)C1CCCC1 | 8600

* * *

# assay.overview: Study DG-031-204: steady state DG-031 plasma concentrations
# Assay type: in vivo, human
# measurement.parameters: human, plasma, oral, 500 mg, 500 mg TID, 1 hr post dose; read-out: Steady state DG-031 exposure, Geometric Mean

item.smiles | u | concentration at 1 h
O=C(O)[C@@H](c1ccc(OCc2ccc3ccccc3n2)cc1)C1CCCC1 | ng/mL | 8500

* * *

# assay.overview: Study DG-031-204: steady state DG-031 plasma concentrations
# Type: in vivo, human
# measurement.parameters: human, plasma, oral, 500 mg, 500 mg BID, 0.5 hr post dose; read-out: Steady state DG-031 exposure, Geometric Mean
# Procedure: Blood samples were collected for determining DG-031 concentrations in a subset of patients (n=22). Samples were collected just prior to dosing and at 0.5, 1, 2, 4, and 6 hours following administration of DG-031 500 mg BID or TID.
observed.property: concentration at 0.5 h (ng/mL)

item.smiles | u | observed.value
O=C(O)[C@@H](c1ccc(OCc2ccc3ccccc3n2)cc1)C1CCCC1 | ng/mL | 4700

* * *

# assay.overview: Study DG-031-204: steady state DG-031 plasma concentrations
# Assay type: in vivo, human
# measurement.parameters: human, plasma, oral, 500 mg, 500 mg BID, 1 hr post dose; read-out: Steady state DG-031 exposure, Geometric Mean

compound | u | concentration at 1 h
O=C(O)[C@@H](c1ccc(OCc2ccc3ccccc3n2)cc1)C1CCCC1 [DG-031] | ng/mL | 6100

* * *

# assay.overview: Population pharmacokinetic analysis (studies DG-031-201, DG-031-203)
# Assay type: in vivo, human
# measurement.parameters: human, plasma, oral; MI patients, estimated; read-out: Terminal elimination half-life (converted)

compound | half-life
O=C(O)[C@@H](c1ccc(OCc2ccc3ccccc3n2)cc1)C1CCCC1 [DG-031] | ~4 h
